As an illustration, consider measured IC50 for compounds on human placental CYP19 (Homo sapiens (Human)).
Sequence (P11511 whole entry): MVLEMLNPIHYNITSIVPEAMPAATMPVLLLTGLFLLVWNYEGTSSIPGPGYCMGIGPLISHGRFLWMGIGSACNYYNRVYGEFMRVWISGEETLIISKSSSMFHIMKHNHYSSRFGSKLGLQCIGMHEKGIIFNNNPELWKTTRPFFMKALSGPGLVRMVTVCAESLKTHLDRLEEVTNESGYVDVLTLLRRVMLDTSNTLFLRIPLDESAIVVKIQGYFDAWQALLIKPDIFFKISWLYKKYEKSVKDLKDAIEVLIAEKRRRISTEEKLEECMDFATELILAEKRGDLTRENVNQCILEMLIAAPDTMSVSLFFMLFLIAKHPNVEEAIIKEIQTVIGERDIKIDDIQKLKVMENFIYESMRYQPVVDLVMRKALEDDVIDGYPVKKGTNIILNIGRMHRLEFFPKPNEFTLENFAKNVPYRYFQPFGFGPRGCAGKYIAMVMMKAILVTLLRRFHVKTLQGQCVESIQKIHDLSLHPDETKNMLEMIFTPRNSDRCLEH
measured.quantity: IC50 (nM)

COc1ccc2c(Cl)c(-c3cccnc3)ccc2c1Cl : 970
COC(=O)c1ccc2cc(-c3cccnc3)ccc2c1 [Compound 16, Methyl-6-pyridin-3-yl-2-naphthoate] : 1250
COc1ccc2cc(-c3cccnc3)ccc2c1 : 586
COc1cc2ccccc2cc1-n1ccnc1 : 129

----------
Target: human CYP17 (Homo sapiens (Human), UniProt P05093)
Sequence (P05093 whole entry): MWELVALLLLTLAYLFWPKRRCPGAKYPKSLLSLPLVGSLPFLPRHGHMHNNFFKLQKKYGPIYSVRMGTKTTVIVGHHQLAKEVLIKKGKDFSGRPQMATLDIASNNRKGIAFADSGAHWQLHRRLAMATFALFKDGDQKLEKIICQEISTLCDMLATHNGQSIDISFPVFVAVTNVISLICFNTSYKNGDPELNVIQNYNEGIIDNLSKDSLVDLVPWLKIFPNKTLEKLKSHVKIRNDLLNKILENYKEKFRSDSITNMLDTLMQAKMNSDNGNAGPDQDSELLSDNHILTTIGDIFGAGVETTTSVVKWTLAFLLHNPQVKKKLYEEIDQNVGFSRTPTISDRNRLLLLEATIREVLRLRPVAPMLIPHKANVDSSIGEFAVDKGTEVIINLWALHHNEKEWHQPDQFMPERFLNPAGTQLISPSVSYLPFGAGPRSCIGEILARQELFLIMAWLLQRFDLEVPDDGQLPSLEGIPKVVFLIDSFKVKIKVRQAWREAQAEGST
Assay: CYP17 inhibition, membrane fraction of E. coli expressing human CYP17
Type: biochemical
Settings: Table 1; progesterone 2.5 μM; inhibitor 2.5 μM; read-out: % Inhib. Human CYP17
The label depends only on inhibition at 2.5 µM: Met if it is at least 40%, Not met if it is smaller.

Brc1ccc2cc(-c3cccnc3)ccc2c1 : Met
COc1ccc2cc(-c3cccnc3)ccc2c1Br : Not met
c1ccc2cc(-n3ccnc3)ccc2c1 : Not met
COC(=O)c1ccc2cc(-c3cccnc3)ccc2c1 [Compound 16, Methyl-6-pyridin-3-yl-2-naphthoate] : Not met
CCOc1ccc2cc(-c3cccnc3)ccc2c1 : Met
Oc1ccc2cc(-c3cccnc3)ccc2c1 : Met
COc1ccc2cc(-c3cccnc3)ccc2c1Cl : Not met
COc1cc2ccccc2cc1-n1ccnc1 : Not met

----------
Molecular target: CYP11B1 (Homo sapiens (Human), UniProt P15538)
Sequence (P15538 25-503): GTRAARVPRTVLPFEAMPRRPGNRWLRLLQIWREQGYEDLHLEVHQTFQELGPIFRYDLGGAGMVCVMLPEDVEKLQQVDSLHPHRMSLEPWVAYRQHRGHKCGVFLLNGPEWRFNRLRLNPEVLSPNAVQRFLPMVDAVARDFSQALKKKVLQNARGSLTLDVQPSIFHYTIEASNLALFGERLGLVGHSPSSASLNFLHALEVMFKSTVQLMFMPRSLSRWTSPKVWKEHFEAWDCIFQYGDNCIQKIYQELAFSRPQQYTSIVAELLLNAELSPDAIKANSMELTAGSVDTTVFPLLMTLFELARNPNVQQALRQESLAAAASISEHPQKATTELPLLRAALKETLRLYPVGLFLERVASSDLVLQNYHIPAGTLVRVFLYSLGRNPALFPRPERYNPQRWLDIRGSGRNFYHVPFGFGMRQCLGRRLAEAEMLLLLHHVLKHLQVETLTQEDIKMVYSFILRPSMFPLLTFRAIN
Experiment: Inhibition test in V79 MZh11B1 cells (hamster fibroblasts expressing human CYP11B1)
Format: cell-based
Settings: Table 1; deoxycorticosterone substrate 100 nM; read-out: IC50 value V79 11B1 hCYP11B1
measured.quantity: IC50

N#Cc1ccc2cc(-c3cccnc3)ccc2c1 [Compound 8, 6-Pyridin-3-yl-2-naphthonitrile] : 691 nM
c1ccc2cc(-c3cnco3)ccc2c1 [Compound 29, 5-(2-Naphthyl)-1,3-oxazole] : 805 nM
CCOc1ccc2cc(-c3cccnc3)ccc2c1 [Compound 5, 3-(6-Ethoxy-2-naphthyl)pyridine] : 883 nM
COc1ccc2cc(-c3cccnc3)ccc2c1Br [Compound 10, 3-(5-Bromo-6-methoxy-2-naphthyl)pyridine] : 1530 nM
c1ccc2cc(-n3ccnc3)ccc2c1 [Compound 23, 1-(2-Naphthyl)-1H-imidazole] : 1050 nM

----------
Test system: steroid production in H295R cells
Assay: cells
Assay type: cell-based, human
Conditions: Homo sapiens, NCI-H295R; H295R; 6 h incubation; read-out: IC50 of cortisol production
measured.quantity: IC50

COc1ccc2cc(-c3cccnc3)ccc2c1 : < 1 nM

----------
Molecular target: CYP11B1 (Homo sapiens (Human), UniProt P15538)
Assay: Inhibition test in V79 MZh11B1 cells (hamster fibroblasts expressing human CYP11B1)
Assay type: cell-based
Settings: read-out: IC50 value V79 11B1 hCY11B1
pIC50: −log10 of the molar value.
measured.quantity: pIC50

COc1ccc2c(c1)CCC(n1ccnc1)=C2 [Compound 46] : 6.12

----------
Target: CYP11B2 (Homo sapiens (Human), UniProt P19099)
Sequence (P19099 25-503): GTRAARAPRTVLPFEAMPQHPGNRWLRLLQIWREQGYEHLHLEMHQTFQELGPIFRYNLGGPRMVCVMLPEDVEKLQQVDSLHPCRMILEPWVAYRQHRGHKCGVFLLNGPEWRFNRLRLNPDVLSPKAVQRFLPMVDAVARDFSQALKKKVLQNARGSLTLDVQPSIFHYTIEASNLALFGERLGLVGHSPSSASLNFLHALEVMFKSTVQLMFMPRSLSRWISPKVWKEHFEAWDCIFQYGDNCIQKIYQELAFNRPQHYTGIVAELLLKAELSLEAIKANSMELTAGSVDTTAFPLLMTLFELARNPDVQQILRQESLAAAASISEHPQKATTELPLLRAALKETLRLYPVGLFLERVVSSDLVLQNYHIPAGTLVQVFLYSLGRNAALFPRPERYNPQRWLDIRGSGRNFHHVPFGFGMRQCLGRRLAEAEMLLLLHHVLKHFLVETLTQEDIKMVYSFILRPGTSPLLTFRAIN
Assay: Screening test in transgenic fission yeast (S. pombe) expressing human CYP11B2
Type: cell-based
Conditions: Table 1; S. pombe cells expressing human CYP11B2; deoxycorticosterone 100 nM; inhibitor 500 nM; read-out: % Inhib. Human hCYP11B2
The label depends only on inhibition at 0.5 µM: Fulfilled if it is at least 70%, Not fulfilled if it is smaller.

COC(=O)c1ccc2cc(-c3cccnc3)ccc2c1 [Compound 16, Methyl-6-pyridin-3-yl-2-naphthoate] : Not fulfilled
COc1ccc2ccc(-c3cccnc3)c(Cl)c2c1 [Compound 14] : Fulfilled
c1cncc(-c2cnc3ccccc3c2)c1 [Compound 19, 3-Pyridin-3-ylquinoline] : Not fulfilled
COc1ccc2cc(-c3cncnc3)ccc2c1 [Compound 30, 5-(6-Methoxy-2-naphthyl)pyrimidine] : Not fulfilled
CCOc1ccc2cc(-c3cccnc3)ccc2c1 [Compound 5, 3-(6-Ethoxy-2-naphthyl)pyridine] : Fulfilled
c1ccc2cc(-n3ccnc3)ccc2c1 [Compound 23, 1-(2-Naphthyl)-1H-imidazole] : Fulfilled
Brc1ccc2cc(-c3cccnc3)ccc2c1 [Compound 4, 3-(6-Bromo-2-naphthyl)pyridine] : Fulfilled

----------
As an illustration, consider measured IC50 for compounds on human CYP17 (Homo sapiens (Human)).
measured.quantity: IC50 (nM)

COc1ccc2cc(-c3cccnc3)ccc2c1 [Compound 2, 3-(6-Methoxy-2-naphthyl)pyridine] : 667
COc1ccc2c(Cl)c(-c3cccnc3)ccc2c1Cl [Compound 12] : 233

----------
Molecular target: CYP11B1 (Homo sapiens (Human), UniProt P15538)
Assay: Inhibition test in V79 MZh11B1 cells (hamster fibroblasts expressing human CYP11B1)
Type: cell-based
Details: Table 1; deoxycorticosterone substrate 100 nM; read-out: IC50 value V79 11B1 hCYP11B1
measured.quantity: IC50 (nM)

COC(=O)c1ccc2cc(-c3cccnc3)ccc2c1 [Compound 16, Methyl-6-pyridin-3-yl-2-naphthoate] : 10500
COc1ccc2ccc(-c3cccnc3)c(Cl)c2c1 [Compound 14] : 771
Brc1ccc2cc(-c3cccnc3)ccc2c1 [Compound 4, 3-(6-Bromo-2-naphthyl)pyridine] : 899
COc1cc2ccccc2cc1-n1ccnc1 [Compound 24, 1-(3-Methoxy-2-naphthyl)-1H-imidazole] : 5020
Oc1ccc2cc(-c3cccnc3)ccc2c1 [Compound 3, 6-Pyridin-3-yl-2-naphthol] : 715
COc1ccc2cc(-c3cccnc3)ccc2c1Cl [Compound 9] : 569
c1ccc2cc(-c3c[nH]cn3)ccc2c1 [Compound 27, 4(5)-(2-Naphthyl)-1H-imidazole] : 206
COc1ccc2c(Cl)c(-c3cccnc3)ccc2c1Cl [Compound 12] : 1540

----------
Target: CYP11B1 (Homo sapiens (Human))
Assay: Inhibition test in V79 MZh11B1 cells (hamster fibroblasts expressing human CYP11B1)
Format: cell-based
Details: read-out: IC50 in V79MZh 11B1 cells (CYP11B1 inhibition)
measured.quantity: IC50

c1ccc2cc(-c3cnco3)ccc2c1 : 206 to 805 nM
COc1ccc2c(c1)CCC(n1ccnc1)=C2 : 206 to 805 nM
c1ccc2cc(-c3c[nH]cn3)ccc2c1 : 206 nM

----------
Known IC50 of a selection of molecules
Target: CYP11B2 (Homo sapiens (Human))
Test: Inhibition test in V79 MZh11B2 cells (hamster fibroblasts expressing human CYP11B2)
Conditions: Table 1; deoxycorticosterone substrate 100 nM; read-out: IC50 value V79 11B2 hCYP11B2
measured.quantity: IC50

N#Cc1ccc2cc(-c3cccnc3)ccc2c1 [Compound 8, 6-Pyridin-3-yl-2-naphthonitrile] : 3 nM
CCOc1ccc2cc(-c3cccnc3)ccc2c1 [Compound 5, 3-(6-Ethoxy-2-naphthyl)pyridine] : 12 nM
COC(=O)c1ccc2cc(-c3cccnc3)ccc2c1 [Compound 16, Methyl-6-pyridin-3-yl-2-naphthoate] : 73 nM
Oc1ccc2cc(-c3cccnc3)ccc2c1 [Compound 3, 6-Pyridin-3-yl-2-naphthol] : 23 nM
COc1cc2ccccc2cc1-n1ccnc1 [Compound 24, 1-(3-Methoxy-2-naphthyl)-1H-imidazole] : 40 nM
COc1ccc2ccc(-c3cccnc3)c(Cl)c2c1 [Compound 14] : 29 nM
c1ccc2cc(-n3ccnc3)ccc2c1 [Compound 23, 1-(2-Naphthyl)-1H-imidazole] : 38 nM
COc1ccc2c(Cl)c(-c3cccnc3)ccc2c1Cl [Compound 12] : 28 nM
COc1ccc2cc(-c3cccnc3)ccc2c1Br [Compound 10, 3-(5-Bromo-6-methoxy-2-naphthyl)pyridine] : 33 nM
Brc1ccc2cc(-c3cccnc3)ccc2c1 [Compound 4, 3-(6-Bromo-2-naphthyl)pyridine] : 15 nM
COc1ccc2cc(-c3cccnc3)ccc2c1Cl [Compound 9] : 13 nM

----------
Target: CYP11B2 (Homo sapiens (Human))
Assay: Screening test in transgenic fission yeast (S. pombe) expressing human CYP11B2
Type: cell-based
Settings: Table 1; S. pombe cells expressing human CYP11B2; deoxycorticosterone 100 nM; inhibitor 500 nM; read-out: % Inhib. Human hCYP11B2
measured.quantity: inhibition at 0.5 µM (%)

c1cncc(-c2ccc3ccccc3n2)c1 : 53
COc1ccc2ccc(-c3cccnc3)cc2c1 : 46
COc1cc2ccccc2cc1-c1cccnc1 : 38
c1ccc2cc(-c3cnco3)ccc2c1 : 16
COc1ccc2cc(-c3cccnc3)ccc2c1Cl : 86
COc1cc2ccccc2cc1-n1ccnc1 : 86
N#Cc1ccc2cc(-c3cccnc3)ccc2c1 : 98
COc1ccc2c(Cl)c(-c3cccnc3)ccc2c1Cl : 82
Oc1ccc2cc(-c3cccnc3)ccc2c1 : 88

meta.source: patent US9271963B2
